Target: FGFR1 (Homo sapiens, UniProt P11362)
Sequence (P11362 22-822): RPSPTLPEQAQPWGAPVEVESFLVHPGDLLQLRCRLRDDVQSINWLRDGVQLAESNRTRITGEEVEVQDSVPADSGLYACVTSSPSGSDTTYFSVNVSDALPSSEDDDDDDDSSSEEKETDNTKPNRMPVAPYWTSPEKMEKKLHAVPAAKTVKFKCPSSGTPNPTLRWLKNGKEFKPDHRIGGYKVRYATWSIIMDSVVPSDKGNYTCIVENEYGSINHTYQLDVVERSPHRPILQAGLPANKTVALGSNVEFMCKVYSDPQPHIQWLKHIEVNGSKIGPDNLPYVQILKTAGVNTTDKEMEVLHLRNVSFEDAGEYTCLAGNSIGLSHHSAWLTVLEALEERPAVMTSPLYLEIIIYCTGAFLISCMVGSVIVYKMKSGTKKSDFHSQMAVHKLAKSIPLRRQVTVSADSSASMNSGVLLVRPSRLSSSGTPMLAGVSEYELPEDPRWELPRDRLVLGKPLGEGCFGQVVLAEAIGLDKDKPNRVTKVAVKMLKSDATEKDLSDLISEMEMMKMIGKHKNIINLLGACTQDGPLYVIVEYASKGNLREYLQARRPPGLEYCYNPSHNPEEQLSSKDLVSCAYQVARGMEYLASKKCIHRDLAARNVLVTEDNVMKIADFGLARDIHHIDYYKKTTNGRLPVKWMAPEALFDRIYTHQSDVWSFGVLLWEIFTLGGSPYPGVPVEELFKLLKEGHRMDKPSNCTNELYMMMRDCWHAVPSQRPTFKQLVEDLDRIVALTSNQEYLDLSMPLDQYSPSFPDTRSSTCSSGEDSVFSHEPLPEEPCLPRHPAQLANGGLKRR
recorded endpoint: IC50

Form entry - test system: FGFR1 (Homo sapiens, UniProt P11362); read-out: IC50; compound: Cc1ccc(C(=O)Nc2ccc(CN3CCN(C)CC3)c(C(F)(F)F)c2)cc1C#Cc1cnc2[nH]ncc2c1 < 0.6 nM

###

Test: Clinical pharmacokinetics in patients with GIST (noncompartmental)
Type: in vivo, human
Conditions: human, plasma; 20 mg QOD oral, fed; steady state (Cycle 1 Day 27); median (range)
Procedure: Noncompartmental pharmacokinetic analysis was conducted via Phoenix WinNonlin software (version 6.4).
recorded endpoint: Tmax (h)
Write the answer as a number in h, unit excluded.

Return reported Tmax; argument: Cc1ccc(C(=O)Nc2ccc(CN3CCN(C)CC3)c(C(F)(F)F)c2)cc1C#Cc1cnc2[nH]ncc2c1 7
